Where these numbers come from: ChEMBL document CHEMBL3351476

# Method Summary: Terminal half life in rat at 1 mg/kg, iv as infusion
# Assay type: ADME, organism-based
# Design: dose 1 mg/kg, route intravenous
# Conditions: in vivo, read-out: beta t1/2
Property Label: half-life

// query Can you look up the measured half-life of "CC(=O)N1c2ccc(-c3ccc(C(=O)O)cc3)cc2[C@H](Nc2ccc(Cl)cc2)C[C@@H]1C" for me?
// result > 8 h

---

# Method Summary: Oral bioavailability in Balb/c mouse at 3 mg/kg
# Type: ADME, organism-based
# Conditions: in vivo
Property Label: bioavailability (%)
Give bare numbers, in %.

// query Can you look up the measured bioavailability of "CC(=O)N1c2ccc(-c3ccc(C(=O)O)cc3)cc2[C@H](Nc2ccc(Cl)cc2)C[C@@H]1C" for me?
// result 45
